pIC50: −log10 of the molar value.
Field pIC50: reported value for NUAK1 (Homo sapiens, UniProt O60285); entries drawn from several documents.

Examples with answers:
- structureSmilesString: "NC(=O)c1nn(-c2c(Cl)cccc2Cl)cc1Nc1ccc(C(=O)N2CCCCC2)cc1"
  pIC50: "6.00 to 7.00"
- structureSmilesString: "Fc1cccc(F)c1C1=Nc2cn[nH]c2-c2cncc3ncn1c23"
  pIC50: "7.00 to 8.00"
- structureSmilesString: "CCN1CCN(C2CCN(c3ccc(Nc4ncc(C(F)(F)F)c(Nc5cccc6c5C(=O)NC6)n4)c(OC(F)F)c3)CC2)CC1"
  pIC50: "7.00 to 7.96"
- structureSmilesString: "Cc1cc(F)c2c(c1)-c1[nH]ncc1NC(c1c(F)cccc1F)=N2"
  pIC50: "7.00 to 8.00"
- structureSmilesString: "CN1C[C@@H]2C[C@H]1CN2c1ccc(Nc2ncc(C(F)(F)F)c(Nc3cccc4c3C(=O)NC4)n2)c(OC(F)F)c1"
  pIC50: "7.00 to 7.96"

Measured pIC50 (NUAK1 (Homo sapiens, UniProt O60285)), entry CC(C)Cn1cnnc1-c1ccc(Nc2cn(-c3c(Cl)cccc3Cl)nc2C(N)=O)cc1 : 6.00 to 7.00

Measured pIC50 (NUAK1 (Homo sapiens, UniProt O60285)), entry CC1(C)CN(c2ccc(Nc3ncc(C(F)(F)F)c(Nc4cccc5c4C(=O)NC5)n3)c(OC(F)F)c2)CCN1 : 6.00 to 7.00

Measured pIC50 (NUAK1 (Homo sapiens, UniProt O60285)), entry CN1CCN(C(=O)c2ccc(Nc3nn(-c4c(Cl)cccc4Cl)nc3C(N)=O)cc2)CC1 : 6.00 to 7.00

Measured pIC50 (NUAK1 (Homo sapiens, UniProt O60285)), entry Cc1cc2c(cc1C(=O)O)NC(c1c(F)cccc1F)=Nc1cn[nH]c1-2 : 6.00 to 7.00

Measured pIC50 (NUAK1 (Homo sapiens, UniProt O60285)), entry COc1cc2c(cc1Nc1ncc(Cl)c(Nc3cccc4c3C(=O)NC4)n1)CNCC2 : 7.00 to 7.96

* * *

pIC50: −log10 of the molar value.
Field pIC50: reported value for UniProt O60285; entries drawn from several documents.

- molecule: "CC(C)(C)N1CCN(C2CCN(c3ccc(Nc4ncc(C(F)(F)F)c(Nc5cccc6c5C(=O)NC6)n4)c(OC(F)F)c3)CC2)CC1"
  target: "UniProt O60285"
  pIC50: "7.00 to 7.96"
- molecule: "NC(=O)c1nn(-c2c(F)cccc2F)cc1Nc1ccc(C(=O)N2CCOCC2)nc1"
  target: "UniProt O60285"
  pIC50: "6.00 to 7.00"

Measured pIC50 (UniProt O60285), entry Fc1cc2c(cc1-c1ccnnc1)N=C(c1c(Cl)cccc1Cl)Nc1c[nH]nc1-2 : 6.00 to 7.00

Measured pIC50 (UniProt O60285), entry CN(C)[C@@H]1CCN(C(=O)c2ccc(Nc3cn(-c4c(Cl)cccc4Cl)nc3C(N)=O)cc2)C1 : 6.00 to 7.00

Measured pIC50 (UniProt O60285), entry Cc1ccc2c(c1)-c1[nH]ncc1N=C(c1c(F)cccc1F)N2 : 7.00 to 8.00

Measured pIC50 (UniProt O60285), entry Fc1cccc(F)c1C1=Nc2cn[nH]c2-c2cc(C(F)(F)F)ccc2N1 : 7.00 to 8.00

Measured pIC50 (UniProt O60285), entry Cn1nncc1-c1ccc(Nc2cn(-c3c(Cl)cccc3Cl)nc2C(N)=O)cc1 : 6.00 to 7.00

Measured pIC50 (UniProt O60285), entry CN1CCC(NC(=O)c2ccc(Nc3cn(-c4c(F)cccc4Cl)nc3C(N)=O)cc2)CC1 : 6.00 to 7.00

* * *

Field IC50: reported value for NUAK1 (Homo sapiens, UniProt O60285); entries drawn from several documents.

- structureSmilesString: "CCc1ccnn1-c1ccc(Nc2cn(-c3c(F)cccc3Cl)nc2C(N)=O)cc1"
  value: "0.1 to 1 µM"

Briefly, IC50 measured for CN1CCC(NC(=O)c2ccc(Nc3cn(-c4c(Cl)cccc4Cl)nc3C(N)=O)cc2)CC1 : 0.1 to 1 µM

Briefly, IC50 measured for COc1ccc2c(c1)N=C(c1c(F)cccc1F)Nc1cn[nH]c1-2 : 0.1 to 1 µM

Briefly, IC50 measured for Cc1ccc2c(c1)-c1[nH]ncc1NC(c1c(Cl)ccc(F)c1F)=N2 : 0.01 to 0.1 µM

Briefly, IC50 measured for FCc1ccc2c(c1)-c1[nH]ncc1N=C(c1c(F)cccc1F)N2 : 0.1 to 1 µM

Briefly, IC50 measured for Nc1ccc2c(c1)-c1[nH]ncc1N=C(c1c(F)cccc1F)N2 : 0.01 to 0.1 µM

Briefly, IC50 measured for COc1cc2c(cc1Nc1ncc(C(F)(F)F)c(Nc3cccc4c3C(=O)NC4)n1)CCN(C)C2 : 0.011 to 0.1 µM
